Each record here notes measured GI50.
# Test system: M14
# Protocol text: NCI tumour cell line growth inhibition, 48 h
Calls of active or inactive are those of the source. Rule as the data show it: active = GI50 up to about 1.1 µM and inactive = higher.

Below, 3 compounds whose answers are already recorded.
>>> experimental_result("CCCCN=C(OC1C=CCCC1)SC (stereo not given)")
"> 100 µM (inactive)"
>>> experimental_result("CCOC(=O)C1(C/C=C/CBr)Cc2ccccc2C1=O (stereo not given)")
"2.83 µM (inactive)"
>>> experimental_result("CC(=O)NC(C)(C)C1CC=C(C)CC1 (stereo not given)")
"> 100 µM (inactive)"

Query block: Field request: GI50 | item: "Cc1ccc(S(=O)(=O)NC(=O)Nc2nc(Cl)cc(Cl)n2)cc1"
Result block: > 100 µM (inactive)

Query block: Moving on to "O=[N+]([O-])c1ccc(Nc2nc3ccccc3s2)cc1"
Result block: 26.7 µM (inactive)

Query block: Moving on to "O=c1c2sc3ccccc3sc=2c(=O)c2c(Cl)c(Cl)c(Cl)c(Cl)c12"
Result block: > 100 µM (inactive)

Query block: Moving on to "Cc1cccc(Nc2cn(COCc3ccccc3)c(=O)[nH]c2=O)c1"
Result block: > 100 µM (inactive)

Query block: Moving on to CCCCCCCCCCCCC(O)C1CCC(C(O)CCCCC(O)CCCCCC2CC(CC(C)=O)C(=O)O2)O1 (stereo not given)
Result block: 7.29 µM (inactive)

Query block: Moving on to C=C(CO)CC(O)c1cc(OC)ccc1OC (stereo not given)
Result block: > 100 µM (inactive)

Query block: Moving on to "O=c1cccc2n1C[C@H]1CNC[C@H]2C1"
Result block: > 100 µM (inactive)

Query block: Moving on to "O=C1CCC(=O)N1CNc1cccc(NCN2C(=O)CCC2=O)c1"
Result block: > 100 µM (inactive)

Query block: Moving on to "COc1cc(/C=C/C(=O)Oc2ccc(NC(C)=O)cc2)ccc1C(=O)OCc1ccccc1"
Result block: > 100 µM (inactive)

Query block: Moving on to C=C1C(=O)O[C@@H]2/C=C(C)/C=C\[C@@H]3O[C@@]3(C)C[C@@H](O)C12 (stereo not given in full)
Result block: 18.3 µM (inactive)

Query block: Moving on to "COc1ccccc1NCC(=O)Nn1c(C)nc2ccc(S(=O)(=O)Nc3ccccc3OC)cc2c1=O"
Result block: > 100 µM (inactive)

Query block: Moving on to "NS(=O)(=O)c1ccc(NC(NC(=O)C(C(F)(F)F)C(F)(F)F)(C(F)(F)F)C(F)(F)F)cc1"
Result block: > 100 µM (inactive)

---

# Test system: U-251
# Protocol text: NCI tumour cell line growth inhibition, 48 h
Calls of active or inactive are those of the source. Rule as the data show it: active = GI50 up to about 1.1 µM and inactive = higher.
Please answer using one outcome listed in true (1) = active, false (0) = inactive

Query block: So what was the verdict on "N#Cc1nc(/C=C/c2cccs2)oc1N" in this test?
Result block: false (0)

---

# System: COLO 205
# Protocol text: NCI tumour cell line growth inhibition, 48 h
Active and inactive are the calls of the source. Cut-off read from the data, not from the text of the source: active = GI50 up to about 1.1 µM and inactive = higher.
Please answer using one outcome listed in active, inactive

>>> class_name("N=C(N)NS(=O)(=O)c1ccc(Nc2c3ccccc3nc3c(C(=O)NCCO)cccc23)cc1")
"active"
>>> class_name("COC(=O)C1[C@@H](C(=O)OC)C(=O)O[C@H]1c1cc(OC)c(OC)c(OC)c1 (some centres undefined)")
"inactive"
>>> class_name("COc1ccc(C2C(C#N)=C(S)N(C3OC(CO)C(O)C(O)C3O)C(C)=C2C(C)=O)cc1 (centres undefined)")
"inactive"
>>> class_name("O=c1c2cc(I)ccc2nc(-c2cccs2)n1-c1ccc(O)cc1")
"inactive"
>>> class_name("O=C(O)Cc1ccc2nc(COC(=O)c3ccccc3)sc2c1")
"inactive"
>>> class_name("CCOC(=O)C1(C(=O)OCC)[C@H](c2ccccc2)C2=NO[C@@H]3CCC[C@H]1[C@H]23")
"inactive"
>>> class_name("COC(=O)C1C2CCCN2OC1(C)CO (centres undefined)")
"inactive"
>>> class_name("C/C=C/[C@@H](C(=O)OC)N1C(=O)c2ccccc2[C@H]1O")
"inactive"

Query block: So what was the verdict on "Cc1cccc(Nc2cn(COCc3ccccc3)c(=O)[nH]c2=O)c1" in this test?
Result block: inactive

Query block: Moving on to "CCN(CCN(CC)C(=O)NC)C(=O)NC"
Result block: inactive

Origin of the recorded values: ChEMBL document CHEMBL1201862
